B1: Storkhead-box protein 2, residues 64 to 141; numbered along this chain, Q9P2F5 (parent)
chain: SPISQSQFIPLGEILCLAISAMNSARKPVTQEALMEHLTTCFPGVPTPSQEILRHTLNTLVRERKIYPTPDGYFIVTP

Variants of: B1
procedureText: abundance fitness (aPCA) (normalised: wild type 0, dead -1); higher = more abundant; growth selection in yeast, the domain comes from the species named
experimentalConditions: Homo sapiens
outcomeMeasure: abundance fitness
Please give only the number in your answer, with no unit.

Find the measured abundance fitness of V45T and report it.
-0.031

Return abundance fitness (reported value) for this variant: A33K
-0.028

Kindly indicate its recorded abundance fitness. Item: F42T
0.176

Return reported abundance fitness. Input variant: P46K
-0.243

Output measured abundance fitness for this item: M35V
-0.092

For the variant R26P , report abundance fitness.
-0.195

Tell me its abundance fitness given P68W as the entry.
-0.057

Look up and report measured abundance fitness for this entry: F74V
-0.003

Check the records and state abundance fitness for T59I
0.029

Respond only with abundance fitness recorded for I66L
-0.05

Note down abundance fitness recorded for P70S
0.016

Look up abundance fitness of T40A and report it.
-0.158

Hello, please tell me recorded abundance fitness for this one: F74W
-0.002

For the variant T39L , give its reported abundance fitness.
-0.095

Supply recorded abundance fitness for Y73W here.
-0.041
